Ref: the Human Domainome abundance scans (Beltran et al. 2025)

B1: Homeobox protein cut-like 2, residues 895 to 963; numbered along this chain, O14529 (parent)
chain: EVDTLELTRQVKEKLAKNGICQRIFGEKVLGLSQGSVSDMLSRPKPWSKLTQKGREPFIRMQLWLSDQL

Variants of: B1
Test: abundance fitness (aPCA) (normalised: wild type 0, dead -1); higher = more abundant; growth selection in yeast, the domain comes from the species named
Details: Homo sapiens
Each entry falls in a class defined on abundance fitness; the bands are low-valued = under -0.2, mid-valued = from -0.2 up to -0.08, high-valued = -0.08 and over

* Q34V | high-valued
* L41D | low-valued
* D3W | low-valued
* R55S | low-valued
* E13R | mid-valued
* E6Q | low-valued
* M40Y | low-valued
* R43T | mid-valued
* N18Y | mid-valued
* M40E | low-valued
* L7I | high-valued
* K49I | mid-valued
* E27R | high-valued
* L50K | low-valued
* S42G | low-valued
* V11F | low-valued
* Q68N | high-valued
* A16E | mid-valued
* K14L | high-valued
* V11R | mid-valued
* P57M | high-valued
* Q22P | high-valued
